Catalogue of Activity readings, one per entry.
- Test Target: UniProt:P00803
- Assay Explanation: Inhibition of full length Escherichia coli His6-tagged LepB expressed in Escherichia coli C43(DE3) assessed as residual activity at 0.01 uM using dabcyl-VEVGGTATAGAFSRPGLE-(EDANS) as substrate preincubated for 10 mins followed by substrate addition measured for 2 hrs by FRET assay relative to control
Your answer should be a plain number; it is taken to be in %.

CCCCCCc1ccc(-c2ccc(C(=O)N3CCC[C@H]3C(=O)N[C@H](C(=O)N[C@@H](C)C(=O)N[C@@H](CC(N)=O)C(=O)N[C@@H](C)B3O[C@@H]4C[C@@H]5C[C@@H](C5(C)C)[C@]4(C)O3)[C@H](C)O)cc2)cc1 tested on UniProt:P00803 gave Activity: 57

CCCCCCc1ccc(-c2ccc(C(=O)N3CC(CN)C[C@H]3C(=O)N[C@H](C(=O)N[C@@H](C)C(=O)N[C@@H](CC(N)=O)C(=O)N[C@@H](C)B(O)O)[C@H](C)O)cc2)cc1 (stereo partly specified) tested on UniProt:P00803 gave Activity: 51.8

CCCCCCc1ccc(-c2ccc(C(=O)N3CCC[C@H]3C(=O)N[C@H](C(=O)N[C@@H](C)C(=O)N[C@@H](CC(N)=O)C(=O)N[C@@H](C)B(O)O)[C@H](C)O)cc2)cc1 tested on UniProt:P00803 gave Activity: 97.1

CCCCCCCCCC(=O)N1CCC[C@H]1C(=O)N[C@H](C(=O)N[C@@H](C)C(=O)N[C@@H](CC(N)=O)C(=O)N[C@@H](C)B1O[C@@H]2C[C@@H]3C[C@@H](C3(C)C)[C@]2(C)O1)[C@H](C)O tested on UniProt:P00803 gave Activity: 84.2

CCCCc1ccc(-c2ccc(C(=O)N[C@@H](CCN)C(=O)N[C@H](C(=O)N[C@@H](C)C(=O)N[C@@H](CCCCN)C(=O)N[C@@H](C)B3O[C@@H]4C[C@@H]5C[C@@H](C5(C)C)[C@]4(C)O3)[C@H](C)O)cc2)cc1 tested on UniProt:P00803 gave Activity: 86.8

CCCCCCc1ccc(-c2ccc(C(=O)N3CC(CN)C[C@H]3C(=O)N[C@H](C(=O)N[C@@H](C)C(=O)N[C@@H](CC(N)=O)C(=O)N[C@@H](C)B3O[C@@H]4C[C@@H]5C[C@@H](C5(C)C)[C@]4(C)O3)[C@H](C)O)cc2)cc1 (stereo partly specified) tested on UniProt:P00803 gave Activity: 81.6

---

- Test Target: Signal peptidase I (Escherichia coli K-12) (UniProt P00803)
- Sequence (P00803 whole entry): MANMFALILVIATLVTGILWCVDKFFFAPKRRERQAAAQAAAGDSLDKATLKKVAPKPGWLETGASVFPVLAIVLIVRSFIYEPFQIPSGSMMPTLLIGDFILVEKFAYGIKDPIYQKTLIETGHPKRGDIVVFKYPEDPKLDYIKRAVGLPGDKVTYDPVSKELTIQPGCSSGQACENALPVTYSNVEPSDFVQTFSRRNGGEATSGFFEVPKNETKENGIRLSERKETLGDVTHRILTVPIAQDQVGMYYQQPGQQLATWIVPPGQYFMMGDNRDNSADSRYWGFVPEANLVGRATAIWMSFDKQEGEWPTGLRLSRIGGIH
- Assay Explanation: Inhibition of full length Escherichia coli His6-tagged LepB expressed in Escherichia coli C43(DE3) assessed as residual activity at 0.625 uM using dabcyl-VEVGGTATAGAFSRPGLE-(EDANS) as substrate preincubated for 10 mins followed by substrate addition measured for 2 hrs by FRET assay relative to control
Catalogue of Activity readings, one per entry.
Your answer should be a plain number; it is taken to be in %.

Please review the entries below; each comes with its answer.
Compound	Test Target	Activity [%]
CCCCc1ccc(-c2ccc(C(=O)N[C@@H](CCN)C(=O)N[C@H](C(=O)N[C@@H](C)C(=O)N[C@@H](CCCCN)C(=O)N[C@@H](C)B3O[C@@H]4C[C@@H]5C[C@@H](C5(C)C)[C@]4(C)O3)[C@H](C)O)cc2)cc1	Signal peptidase I (Escherichia coli K-12) (UniProt P00803)	6.98
CCCCCCc1ccc(-c2ccc(C(=O)N3CC(CN)C[C@H]3C(=O)N[C@H](C(=O)N[C@@H](C)C(=O)N[C@@H](CC(N)=O)C(=O)N[C@@H](C)B(O)O)[C@H](C)O)cc2)cc1 (stereo partly specified)	Signal peptidase I (Escherichia coli K-12) (UniProt P00803)	25.1
CCCCCCCCCC(=O)N1CCC[C@H]1C(=O)N[C@H](C(=O)N[C@@H](C)C(=O)N[C@@H](CC(N)=O)C(=O)N[C@@H](C)B1O[C@@H]2C[C@@H]3C[C@@H](C3(C)C)[C@]2(C)O1)[C@H](C)O	Signal peptidase I (Escherichia coli K-12) (UniProt P00803)	18.1
CCCCCCc1ccc(-c2ccc(C(=O)N3CC(CN)C[C@H]3C(=O)N[C@H](C(=O)N[C@@H](C)C(=O)N[C@@H](CC(N)=O)C(=O)N[C@@H](C)B3O[C@@H]4C[C@@H]5C[C@@H](C5(C)C)[C@]4(C)O3)[C@H](C)O)cc2)cc1 (stereo partly specified)	Signal peptidase I (Escherichia coli K-12) (UniProt P00803)	5.53
CCCCCCc1ccc(-c2ccc(C(=O)N3CCC[C@H]3C(=O)N[C@H](C(=O)N[C@@H](C)C(=O)N[C@@H](CC(N)=O)C(=O)N[C@@H](C)B(O)O)[C@H](C)O)cc2)cc1	Signal peptidase I (Escherichia coli K-12) (UniProt P00803)	33.5

The record that follows has no Activity shown yet.
// field: Activity; key: CCCCCCc1ccc(-c2ccc(C(=O)N3CCC[C@H]3C(=O)N[C@H](C(=O)N[C@@H](C)C(=O)N[C@@H](CC(N)=O)C(=O)N[C@@H](C)B3O[C@@H]4C[C@@H]5C[C@@H](C5(C)C)[C@]4(C)O3)[C@H](C)O)cc2)cc1 ; value = 16
